System: WaGa
experimentSummary: qHTS assay to identify novel small-molecules to repurpose for Merkel cell carcinoma treatment (AID 1296009); note: nearly all actives have a fitted effect of over 60% in size
cond: MCC and control cell lines, CellTiter-Glo viability, 72 h; series mostly up to 46 µM
Inconclusive results are not listed. Calls of active or inactive are those of the source. Calls come from the whole dose curve; as a rule, active = well fitted inhibition curve with a large enough effect; inconclusive = small, poorly fitted or top-dose-only effect; inactive = flat fitted curve, though single readings scatter.
Pick from active, inactive when you respond.

Cn1cnc([N+](=O)[O-])c1Sc1ncnc2nc[nH]c12 = active

So what was the verdict on COc1ccc(-c2c(-c3ccc(O)cc3O)n[nH]c2C)cc1 in this test?
inactive

====

targetDesc: Tyrosine-protein kinase Yes (Homo sapiens) (UniProt P07947)
Sequence (P07947 whole entry, looked up): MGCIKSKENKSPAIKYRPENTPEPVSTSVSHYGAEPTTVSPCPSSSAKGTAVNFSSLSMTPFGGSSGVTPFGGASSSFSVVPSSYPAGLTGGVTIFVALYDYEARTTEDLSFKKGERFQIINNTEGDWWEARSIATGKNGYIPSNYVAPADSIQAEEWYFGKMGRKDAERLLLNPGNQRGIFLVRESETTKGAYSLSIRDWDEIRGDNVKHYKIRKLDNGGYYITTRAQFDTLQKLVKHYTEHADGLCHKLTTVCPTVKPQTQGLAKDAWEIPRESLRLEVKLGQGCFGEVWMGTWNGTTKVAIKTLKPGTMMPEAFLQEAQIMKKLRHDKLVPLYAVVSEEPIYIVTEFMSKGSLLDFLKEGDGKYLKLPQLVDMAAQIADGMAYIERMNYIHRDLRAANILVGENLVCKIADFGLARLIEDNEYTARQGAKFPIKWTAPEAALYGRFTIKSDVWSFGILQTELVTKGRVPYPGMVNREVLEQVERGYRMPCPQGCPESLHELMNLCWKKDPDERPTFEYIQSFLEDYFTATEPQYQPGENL
experimentSummary: qHTS for small molecule inhibitors of Yes1 kinase: Primary Screen (AID 686947); note: nearly all actives have a fitted effect of over 60% in size
cond: Yes1 kinase biochemical qHTS inhibition; series mostly up to 76.9 µM
Inconclusive results are not listed. Calls of active or inactive are those of the source. Calls follow the shape of the dose curve; as a rule, active = well fitted inhibition curve with a large enough effect; inconclusive = small, poorly fitted or top-dose-only effect; inactive = no such curve, though single readings can be large or run the other way.
Pick from true = active, false = inactive when you respond.

CN(C)c1ccc(C2Nc3ccc4ccccc4c3C3=C2C(=O)CC(C)(C)C3)cc1Br (centres undefined) = false

So what was the verdict on COc1ccc(C2=N[C@H](c3ccc(Cl)cc3)[C@H](c3ccc(Cl)cc3)N2C(=O)N2CCNC(=O)C2)c(OC(C)C)c1 in this test?
true

So what was the verdict on O=C(Nc1nc2ccccc2n1CCN1CCOCC1)c1cccc([N+](=O)[O-])c1 in this test?
false

So what was the verdict on O=C(c1cc(Cc2n[nH]c(=O)c3ccccc23)ccc1F)N1CCN(C(=O)C2CC2)CC1 in this test?
false

So what was the verdict on CC1(C)SCCN(S(=O)(=O)c2ccc(OCC#CCO)cc2)[C@@H]1C(=O)NO in this test?
false
